Here the recorded PBM binding z-score is given for each entry.
Tested on: PPARg:RXRa IVT, anti-PPARg (NR concentration 270 nM, RXRa partner concentration 90 nM)
Experiment: PBM binding z-score (relative to random genomic background probes); higher = stronger binding; sequences stand for … in GC…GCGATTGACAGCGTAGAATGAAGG
property-name: PBM binding z-score

- construct-sequence: "CAGACTGGGGCAGAAAGGTTACCATACCATCCGG"
  target-under-test: "PPARg:RXRa IVT, anti-PPARg (NR concentration 270 nM, RXRa partner concentration 90 nM)"
  property-name: "PBM binding z-score"
  result-value: 3.01
- construct-sequence: "GCTAATTGGTCAGTAAAAGGTCACACACCGGTCG"
  target-under-test: "PPARg:RXRa IVT, anti-PPARg (NR concentration 270 nM, RXRa partner concentration 90 nM)"
  property-name: "PBM binding z-score"
  result-value: 3.09
- construct-sequence: "TCATATAGGTAAATGCTAGGTGACAGTCCGATCT"
  target-under-test: "PPARg:RXRa IVT, anti-PPARg (NR concentration 270 nM, RXRa partner concentration 90 nM)"
  property-name: "PBM binding z-score"
  result-value: 3.05
